Test system: Aβ42 and Aβtotal in the soluble fraction of brain homogenates
test.name: In vivo Aβ42 lowering: brain soluble Aβ42 and Aβtotal by ELISA after a single oral dose
Design: species or system mouse
run.conditions: Mus musculus, po, 4 h, dose 30 mg/kg oral dosing, 4 h after dosing, untreated animals (Ctrl) set at 100, read-out: Aβ42 (% vs Ctrl) _Mean
Respond with True for response vs control in vivo at 30 mg/kg values of 70% and above, False for values below.

Cc1cc(-c2ccc(Nc3nc(Oc4ccccc4Cl)n(C(C)C)n3)cc2)ccn1    True

Q: response vs control in vivo at 30 mg/kg >= 70% for COc1cc(Nc2nc(N3CCOC(c4cccc(C)c4)C3)n(C(C)C)n2)ccc1-n1cnc(C)c1 (centres unmarked) ?
Ans: True

Q: Test whether the molecule COc1cc(Nc2nc(N3CCCC(C(F)(F)F)C3)n(C(C)C)n2)ccc1-c1ccnc(C)c1 (centres unmarked) records response vs control in vivo at 30 mg/kg of 70% or higher.
Ans: False

Q: Please check the record COc1cc(Nc2nc(-c3cccc(C(F)(F)F)c3)n(C(C)C)n2)ccc1-n1cnc(C)c1 and state if its response vs control in vivo at 30 mg/kg is at or above 70%.
Ans: False

Q: Could you please find out whether Cc1cc(-c2ccc(Nc3nc(N4CCOC(C(F)(F)F)C4)n(C(C)C)n3)cc2)ccn1 (centres unmarked) has response vs control in vivo at 30 mg/kg that meets 70% or exceeds it?
Ans: False

Q: Record COc1cc(Nc2nc(N3CCCC(C(F)(F)F)C3)n(C(C)C)n2)ccc1-n1cnc(C)c1 (centres unmarked) ; criterion: response vs control in vivo at 30 mg/kg no lower than 70%. Met?
Ans: False

Q: response vs control in vivo at 30 mg/kg >= 70% for COc1cc(Nc2nc(Oc3c(F)cccc3Cl)n(C(C)C)n2)ccc1-c1ccnc(C)c1 ?
Ans: True

----------
Each record here notes measured response vs control in vivo at 30 mg/kg.
Test system: Aβ42 and Aβtotal in the soluble fraction of brain homogenates
test.name: In vivo Aβ42 lowering: brain soluble Aβ42 and Aβtotal by ELISA after a single oral dose
Design: species or system mouse
run.conditions: Mus musculus, po, 4 h, dose 30 mg/kg oral dosing, 4 h after dosing, untreated animals (Ctrl) set at 100, read-out: Aβ42 (% vs Ctrl) _Mean
Report the value in % with no unit label.

COc1cc(Nc2nc(Oc3ccccc3Cl)n(C(C)C)n2)ccc1-c1ccnc(C)c1 [Compound 69]    63

Now look at this entry.
Q: Would you kindly share the measured response vs control in vivo at 30 mg/kg for COc1cc(Nc2nc(N3CCCC(C(F)(F)F)C3)n(C(C)C)n2)ccc1-n1cnc(C)n1 (racemic) [Compound 59] ?
Ans: 69

----------
test.name: Central brain availability: compound levels in plasma and brain
Format: in vivo
run.conditions: mouse, plasma, dose 30 mg/kg oral dosing, read-out: Plasma
Entries annotated with measured concentration at 4 h
Field format: number, assumed ng/mL, no unit text.

Recorded concentration at 4 h, per entry:
COc1cc(Nc2nc(Oc3cccc(C(F)(F)F)c3)n(C(C)C)n2)ccc1-n1cnc(C)n1 [Compound 5]    1630
COc1cc(Nc2nc(Oc3ccccc3Cl)n(C(C)C)n2)ccc1-n1cnc(C)n1 [Compound 3]    7740
COc1cc(Nc2nc(-c3ccc(F)cc3)n(C)n2)ccc1-n1cnc(C)c1 [Compound 10]    2700

// next entry
Q: Requested read-out: concentration at 4 h. Entry: COc1cc(Nc2nnc(-c3ccc(F)cc3)[nH]2)ccc1-n1cnc(C)c1 [Compound A, reference compound]
Ans: 0

----------
test.name: Central brain availability: compound levels in plasma and brain
Format: in vivo
run.conditions: mouse, brain, dose 30 mg/kg oral dosing, read-out: Brain
Attribute: concentration at 4 h
Write the number in ng/g without appending the unit.

Use the examples below as a reference point.
COc1cc(Nc2nnc(-c3ccc(F)cc3)[nH]2)ccc1-n1cnc(C)c1 [Compound A, reference compound]    0
COc1cc(Nc2nc(Oc3ccccc3Cl)n(C(C)C)n2)ccc1-n1cnc(C)n1    8510
COc1cc(Nc2nc(Oc3cccc(C(F)(F)F)c3)n(C(C)C)n2)ccc1-n1cnc(C)n1    1630

Q: Query: concentration at 4 h; subject: COc1cc(Nc2nc(-c3ccc(F)cc3)n(C)n2)ccc1-n1cnc(C)c1
Ans: 4640

----------
Overview of recorded melting point for various molecules
Quick reminder: number only, in °C, skip the unit.

Cc1cc(-c2ccc(Nc3nc(Oc4cccc(Cl)c4C)n(C(C)C)n3)cc2)ccn1 [Compound 157]    159.6
COc1cc(Nc2nc(Oc3cccc(Cl)c3)n(C(C)C)n2)ccc1-c1ccnc(C)c1 [Compound 158]    125.4
COc1cc(Nc2nc(Oc3ccccc3C(F)(F)F)n(C)n2)ccc1-c1ccnc(C)c1 [Compound 166]    159.6
Cc1cc(-c2ccc(Nc3nc(Oc4ccccc4Cl)n(C(C)C)n3)cc2)ccn1 [Compound 140]    142.5
COc1cc(Nc2nc(Oc3ccccc3Cl)n(CCNC(C)C)n2)ccc1-c1ccnc(C)c1 [Compound 149]    138.6

Q: Quick check: melting point of Cc1cc(-c2ccc(Nc3nc(-c4cccc(C(F)(F)F)c4)n(C)n3)cc2)ccn1 [Compound 60] ?
Ans: 184.2

Q: Fill in: melting point of Cc1cc(-c2ccc(Nc3nc(-c4cccc(C(F)(F)F)c4)n(C(C)C)n3)cc2F)ccn1 [Compound 138] is ___
Ans: 199.6

Q: Tell me the measured melting point of Cc1cc(-c2ccc(Nc3nc(Oc4cc(F)ccc4Cl)n(C(C)C)n3)cc2)ccn1 [Compound 161] , please.
Ans: 132.7

----------
readout: melting point (°C)
All answers are understood in °C, so give the number only.

COc1cc(Nc2nc(Oc3cccc(Cl)c3C)n(C(C)C)n2)ccc1-n1cnc(C)n1    157.2
COc1cc(Nc2nc(N3CCN(C(=O)OC(C)(C)C)CC3)n(C(C)C)n2)ccc1-c1ccnc(C)c1    177.1
COc1cc(Nc2nc(Cc3cccc(C(F)(F)F)c3)n(CCNC(C)=O)n2)ccc1-n1cnc(C)c1    179
COc1cc(Nc2nc(-c3ccc(F)cc3)n(C)n2)ccc1-n1cnc(C)c1    247.1

Q: # query: melting point of entry Cc1cc(-c2ccc(Nc3nc(Oc4c(C)cccc4Cl)n(C(C)C)n3)cc2)ccn1
Ans: 222.6

Q: Look up melting point: COc1cc(Nc2nc(Oc3ccccc3Cl)n(C)n2)ccc1-n1cnc(C)c1
Ans: 210.1

Q: Quick check: melting point of COc1cc(Nc2nc(Oc3cccc(C(F)(F)F)c3)n(C(C)C)n2)ccc1-n1cnc(C)n1 ?
Ans: 166.6

Q: Reported melting point for Cc1cc(-c2ccc(Nc3nc(-c4cccc(C(F)(F)F)c4)n(C(C)C)n3)cc2)ccn1 : what is it?
Ans: 210.3

Q: Form field: reported melting point of COc1cc(Nc2nc(N3CCCC(C(F)(F)F)C3)n(C(C)C)n2)ccc1-n1cnc(C)n1 (single isomer, unassigned) [Compound 108]
Ans: 141.6

Q: Form field: reported melting point of COc1cccc(C2CCN(c3nc(Nc4ccc(-n5cnc(C)c5)c(OC)c4)nn3C(C)C)C2)c1 (stereo not shown)
Ans: 169.9

----------
Tested on: Aβ42 and Aβtotal in the soluble fraction of brain homogenates
test.name: In vivo Aβ42 lowering: brain soluble Aβ42 and Aβtotal by ELISA after a single oral dose
Parameters: species or system mouse
run.conditions: Mus musculus, po, 4 h, dose 30 mg/kg oral dosing, 4 h after dosing, untreated animals (Ctrl) set at 100, read-out: Aβ42 (% vs Ctrl) _Mean
readout: response vs control in vivo at 30 mg/kg (%)
Write the answer as a number in %, unit excluded.

Examples from the recorded data:
COc1cc(Nc2nc(N3CCCC(C(F)(F)F)C3)n(C(C)C)n2)ccc1-n1cnc(C)n1 (single isomer, unassigned) [Compound 108]    70
COc1cc(Nc2nnc(-c3ccc(F)cc3)[nH]2)ccc1-n1cnc(C)c1 [Compound A, reference compound]    101
COc1cc(Nc2nc(Oc3ccccc3Cl)n(C(C)C)n2)ccc1-n1cnc(C)c1    45

Moving on to the next compound.
Q: Any idea what response vs control in vivo at 30 mg/kg came out for Cc1cc(-c2ccc(Nc3nc(Oc4ccccc4Cl)n(C(C)C)n3)cc2F)ccn1 on Aβ42 and Aβtotal in the soluble fraction of brain homogenates?
Ans: 78

----------
Counter-ions that a name gives are not always drawn.
readout: melting point (°C)
# unit: °C | format: bare number

COc1nc(Nc2nc(-c3cccc(C(F)(F)F)c3)n(C(C)C)n2)ccc1-n1cnc(C)c1    185.1
COc1cc(Nc2nc(Oc3ccccc3Cl)n(C)n2)ccc1-c1ccnc(C)c1    175
COc1cc(Nc2nc(-c3cccc(C(F)(F)F)c3)n(C(C)C)n2)ccc1-c1ccnc(C)c1    221.9
COc1cc(Nc2nc(N3CCCC(c4ccccc4)C3)n(C(C)C)n2)ccc1-n1cnc(C)c1 (stereo not drawn)    164.2
COc1cc(NC(=O)c2nc(Oc3ccc(F)cc3C)n(C(C)C)n2)ccc1-n1cnc(C)c1    158.4
COc1cc(Nc2nc(Oc3ccccc3Cl)n(CC(OC)OC)n2)ccc1-c1ccnc(C)c1    90.1
COc1cc(Nc2nc(N3CCCC(C(F)(F)F)C3)n(C)n2)ccc1-n1cnc(C)c1 (stereo not drawn)    199.9
COc1cc(Nc2nc(OC3CCCC(C(F)(F)F)C3)n(C(C)C)n2)ccc1-c1ccnc(C)c1 (stereo not drawn) (as salt: HCl) (hydrate or solvate)    131.5
COc1cc(Nc2nc(Oc3ccc(F)cc3C)n(C(C)C)n2)ccc1-c1ccnc(C)c1    172.7
COc1cc(Nc2nc(N3CCCC(C(F)(F)F)C3)n(C(C)C)n2)ccc1-n1cnc(C)n1 (single isomer, unassigned) [Compound 109]    140.1

// next item, melting point requested
Q: # lookup: melting point of COc1cc(Nc2nc(N3CCc4ccccc4C3)n(C(C)C)n2)ccc1-n1cnc(C)c1
Ans: 214.5
